Reported % inhibition of RNase H at 20 μM is given for each of the following compounds.
target: RNase H activity of HIV reverse transcriptase (Human immunodeficiency virus type 1 group M subtype B); construct: 2.5 nM of the p51/p66 RT heterodimer in the assay; made in house; test: Fluorescence (FRET)-based RNase H assay of HIV reverse transcriptase; type: biochemical, HIV-1; conditions: 20 μM inhibitor concentration
Return type: number; implicit unit %.

Take a look at these entries with their results.
Compound	% inhibition of RNase H at 20 μM (%)
CCC(C)C(O)c1cc2n(c(=O)c1C)Cc1cc3cc(OC(F)(F)F)ccc3nc1-2 (stereo not shown) [Compound 4.1.7]	55
CCc1c2c(nc3ccc(OC)cc13)-c1cc(C(O)C3CCCCC3)c(C)c(=O)n1C2 (stereo not shown) [Compound 6.4.3]	60
CCc1c2c(nc3ccccc13)-c1cc(C(O)C3CCCCC3)c(C)c(=O)n1C2 (stereo not shown) [Compound 6.4.1]	65
CCc1c2c(nc3c(F)cccc13)-c1cc(C(O)CCC3CCCCC3)c(C)c(=O)n1C2 (stereo not shown) [Compound 7.4.8]	95
CCCCc1c2c(nc3ccc(OC)cc13)-c1cc(C(O)CC)c(C)c(=O)n1C2 (stereo not shown) [Compound 3.6.3]	66
CCCCCc1c2c(nc3ccc(OC)cc13)-c1cc(C(O)C(C)CC)c(C)c(=O)n1C2 (stereo not shown) [Compound 4.7.3]	60
Cc1ccc2nc3c(c(-c4ccccc4)c2c1)Cn1c-3cc(C(O)C(C)C)c(C)c1=O (stereo not shown) [Compound 5.8.9]	69
CCCCc1c2c(nc3ccc(CC)cc13)-c1cc(C(O)C(C)C)c(C)c(=O)n1C2 (stereo not shown) [Compound 5.6.5]	100

Please give the measured % inhibition of RNase H at 20 μM for this compound: CCCCCc1c2c(nc3ccc(C(F)(F)F)cc13)-c1cc(C(O)CCC3CCCCC3)c(C)c(=O)n1C2 (stereo not shown) [Compound 7.7.4]
75

For CCCc1c2c(nc3c(F)cccc13)-c1cc(C(O)C(C)CC)c(C)c(=O)n1C2 (stereo not shown) [Compound 4.5.8] then?
55

For CCC(C)C(O)c1cc2n(c(=O)c1C)Cc1c-2nc2ccc(C)cc2c1-c1ccccc1 (stereo not shown) [Compound 4.8.9] then?
55

For Cc1ccc2nc3c(cc2c1)Cn1c-3cc(C(O)C2CCCCC2)c(C)c1=O (stereo not shown) [Compound 6.1.9] then?
65

For CCCCCc1c2c(nc3ccc(OC)cc13)-c1cc(C(O)CCC)c(C)c(=O)n1C2 (stereo not shown) [Compound 2.7.3] then?
60

For CCC(C)C(O)c1cc2n(c(=O)c1C)Cc1c-2nc2ccc(C(F)(F)F)cc2c1-c1ccccc1 (stereo not shown) [Compound 4.8.4] then?
74

For CCCc1c2c(nc3c(F)cccc13)-c1cc(C(O)CCC3CCCCC3)c(C)c(=O)n1C2 (stereo not shown) [Compound 7.5.8] then?
82

For Cc1ccc2nc3c(c(-c4ccccc4)c2c1)Cn1c-3cc(C(O)CCC2CCCCC2)c(C)c1=O (stereo not shown) [Compound 7.8.9] then?
61

---

molecular target: RNase H activity of HIV reverse transcriptase (Human immunodeficiency virus type 1 group M subtype B, UniProt P03366); construct: 2.5 nM of the p51/p66 RT heterodimer in the assay; made in house; experiment: Fluorescence (FRET)-based RNase H assay of HIV reverse transcriptase; assay type: biochemical, HIV-1; conditions: 10 μM inhibitor concentration; activity in presence / in absence of analog x 100
Reported Residual activity (%) RNase H is given for each of the following compounds.
Return type: number; implicit unit %.

Please give the measured Residual activity (%) RNase H for this compound: Cc1ccc2nc3c(c([Si](C)(C)C)c2c1)Cn1c-3cc(C(O)CCC2CCCCC2)c(C)c1=O (centres unmarked) [5 (5Cδ)]
103

For CCCCCCc1c2c(nc3ccc(C)cc13)-c1cc(C(=O)Cc3ccccc3)c(C)c(=O)n1C2 [5 (8Cεκ)] then?
86

For Cc1c(C(O)CCC2CCCCC2)cc2n(c1=O)Cc1c-2nc2ccccc2c1[Si](C)(C)C (centres unmarked) [5 (5Aδ)] then?
78

For CCC(=O)c1cc2n(c(=O)c1C)Cc1c-2nc2ccccc2c1[Si](C)(C)C(C)(C)C [5 (4Aακ)] then?
76

For CCC(=O)c1cc2n(c(=O)c1C)Cc1c-2nc2ccc(C)cc2c1[Si](C)(C)C(C)(C)C [5 (4Cακ)] then?
90

For CCC(O)c1cc2n(c(=O)c1C)Cc1c-2nc2ccccc2c1-c1ccccc1 (centres unmarked) [5 (3Aα)] then?
97

---

biological target: RNA-dependent DNA polymerase activity of HIV reverse transcriptase (Human immunodeficiency virus type 1 group M subtype B, UniProt P03366); construct: made in house; test: RNA-dependent DNA polymerase activity assay of HIV reverse transcriptase; assay type: biochemical, HIV-1; settings: 10 μM inhibitor concentration; activity in presence / in absence of analog x 100
# label = bin(measured Residual activity (%) Polymerase), where bins are class 0 = under 60%, class 1 = from 60% up to 80%, class 2 = 80% and over

Compound	Answer label
CCCCCCc1c2c(nc3ccccc13)-c1cc(C(O)CCC3CCCCC3)c(C)c(=O)n1C2 (stereo not shown) [5 (8Aδ)]	class 1
CCCCCCc1c2c(nc3ccc(F)cc13)-c1cc(C(O)Cc3ccccc3)c(C)c(=O)n1C2 (stereo not shown) [5 (8Bε)]	class 2
CCCCCCc1c2c(nc3ccc(OC)cc13)-c1cc(C(O)Cc3ccccc3)c(C)c(=O)n1C2 (stereo not shown) [5 (8Dε)]	class 1
Cc1c(C(O)C(C)(C)C)cc2n(c1=O)Cc1c-2nc2ccccc2c1-c1ccccc1 (stereo not shown) [5 (3Aβ)]	class 0
CCC(O)c1cc2n(c(=O)c1C)Cc1c-2nc2ccc(F)cc2c1-c1ccccc1 (stereo not shown) [5 (3Bα)]	class 0
COc1ccc2nc3c(c([Si](C)(C)C(C)(C)C)c2c1)Cn1c-3cc(C(O)Cc2ccccc2)c(C)c1=O (stereo not shown) [5 (4Dε)]	class 0
CCCCCCc1c2c(nc3ccc(C)cc13)-c1cc(C(=O)Cc3ccccc3)c(C)c(=O)n1C2 [5 (8Cεκ)]	class 1
CCC(=O)c1cc2n(c(=O)c1C)Cc1c-2nc2ccc(C)cc2c1[Si](C)(C)C(C)(C)C [5 (4Cακ)]	class 0

Category of CCCCCCc1c2c(nc3ccc(C)cc13)-c1cc(C(O)CC)c(C)c(=O)n1C2 (stereo not shown) [5 (8Cα)] :
class 2

For Cc1ccc2nc3c(c([Si](C)(C)C(C)(C)C)c2c1)Cn1c-3cc(C(O)C(C)(C)C)c(C)c1=O (stereo not shown) [5 (4Cβ)] then?
class 1

---

target: RNA-dependent DNA polymerase activity of HIV reverse transcriptase (Human immunodeficiency virus type 1 group M subtype B, UniProt P03366); construct: made in house; assay: RNA-dependent DNA polymerase activity assay of HIV reverse transcriptase; format: biochemical, HIV-1; conditions: 10 μM inhibitor concentration; activity in presence / in absence of analog x 100; read-out: Residual activity (%) Polymerase
Measured parameter: remaining activity at 10 µM (%)
Return type: number; implicit unit %.

Please give the measured remaining activity at 10 µM for this compound: CCc1c2c(nc3ccc(NC(=O)OC(C)(C)C)cc13)-c1cc(C(O)CC)c(C)c(=O)n1C2 (centres unmarked)
87

For CCc1c2c(nc3ccc(O)cc13)-c1cc(C(O)CC)c(C)c(=O)n1C2 (centres unmarked) then?
69

For CCC(O)c1cc2n(c(=O)c1C)Cc1c-2nc2ccc(N)cc2c1[Si](C)(C)C (centres unmarked) then?
123

For CCc1c2c(nc3ccc(N)cc13)-c1cc(C(O)CC)c(C)c(=O)n1C2 (centres unmarked) then?
76

For CCC(O)c1cc2n(c(=O)c1C)Cc1c-2nc2ccc(NC(=O)OC(C)(C)C)cc2c1[Si](C)(C)C (centres unmarked) then?
80

---

biological target: RNA-dependent DNA polymerase activity of HIV reverse transcriptase (Human immunodeficiency virus type 1 group M subtype B); construct: made in house; assay: RNA-dependent DNA polymerase activity assay of HIV reverse transcriptase; format: biochemical, HIV-1; settings: 10 μM inhibitor concentration; activity in presence / in absence of analog x 100
Reported Residual activity (%) Polymerase is given for each of the following compounds.

Take a look at these entries with their results.
Compound	Result
CCCCCCc1c2c(nc3ccccc13)-c1cc(C(=O)C(C)(C)C)c(C)c(=O)n1C2	76%
CCC(=O)c1cc2n(c(=O)c1C)Cc1c-2nc2ccc(F)cc2c1[Si](C)(C)C	74%

Please give the measured Residual activity (%) Polymerase for this compound: `CCC(=O)c1cc2n(c(=O)c1C)Cc1c-2nc2ccc(F)cc2c1-c1ccccc1`
100%

For CCCCCCc1c2c(nc3ccc(F)cc13)-c1cc(C(O)C(C)(C)C)c(C)c(=O)n1C2 (stereo not drawn) then?
50%

For Cc1c(C(O)Cc2ccccc2)cc2n(c1=O)Cc1c-2nc2ccc(F)cc2c1[Si](C)(C)C (stereo not drawn) then?
49%
